target: T1, soluble human CTLA-4 expressed with a C-terminal myc-myc-polyhistidine tag (human); assay: SPR, mAb capture, 25 C
T1 construct: soluble protein; also called hCTLA-4.mmh; hCTLA4.mmh
T1 sequence (chain, as listed by the source limits assumed): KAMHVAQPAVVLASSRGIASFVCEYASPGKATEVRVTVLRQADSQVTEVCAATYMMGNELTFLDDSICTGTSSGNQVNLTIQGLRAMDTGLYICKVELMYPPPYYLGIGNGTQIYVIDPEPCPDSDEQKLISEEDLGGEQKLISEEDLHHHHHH
Listed here: items and their measured t1/2.
Give the value in min but do not write min after it.

Below: 4 binders and their reported t1/2.
// t1/2 lookup, binder = H1H19312P (antibody, human IgG1, V domains shown) VH: QVQLQESGPGLVKPSETLSLTCTVSGGSISSYHWSWIRQPLGKGLEWIGYIYYSGSTNYNPSLKSRVTISVDTSKNQFSLKLSSVTAADTAVYYCARGGSSIWPFDYWGQGTLVTVSS VL: DIQMTQSPSTLSASVGDRVTITCRASQSISSWLAWYQQKSGKAPKLLISKASTLESGVPSRFSGSGSGTEFTLTISSLQPDDFATYYCQQYNIYSWTFGQGTKVEIK , result: 11

Data point: H1H19278P (antibody, human IgG1, V domains shown) VH: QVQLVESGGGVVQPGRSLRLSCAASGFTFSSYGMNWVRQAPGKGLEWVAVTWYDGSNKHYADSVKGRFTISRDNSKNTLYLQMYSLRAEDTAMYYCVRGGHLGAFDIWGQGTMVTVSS VL: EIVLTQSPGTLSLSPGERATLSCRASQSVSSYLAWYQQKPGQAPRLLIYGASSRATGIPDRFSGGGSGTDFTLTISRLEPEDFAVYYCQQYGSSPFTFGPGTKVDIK ; t1/2 = 28.8

H1H19284P (antibody, human IgG1, V domains shown) VH: EVQLVESGGGLVQPGGSLRLSCAASGFTLSNYVMTWVRQAPGKGLEWVSAISGRGGNSYYADSVKGRFSISRDHSKNTLYLQVNSLRAEDTAVYYCAKAERGYSYGFNWFDPWGQGTLVTVSS VL: DIQMTQSPSSVSASAGDRVTITCRASQGISSWLAWYQQKPGKAPKLLIYAASSLQSGVPSRFSGSGSGTDFTLTISSLQPEDFASYYCQQGNNFPLTFGGGTKVEIK yielded t1/2 of 31.3

For H1H19273P (antibody, human IgG1, V domains shown) VH: QITLKESGPTLVKPTQTLTLTCTFSGFSLSTSGVGVGWIRQSPGRALEWLALIYWNDHERYSPSLKSRLTITKDTSKNLVVLAMANMDPVDTATYFCAHRNIEYRRSYFFDYWGQGTLVTVSS VL: DIQMTQSPSSVSASVRDRVTVTCRASQDINNWLAWYQQKPGKAPKLLIYAASSLQSGVPSRFSGSGSGTDFTLTISSLQPEDFATYYCQQANTFPFTFGPGTKVDIK the binder record lists t1/2 as 31.9

// next item, t1/2 requested
get_value(item= H1H19313P (antibody, human IgG1, V domains shown) VH: QITLKESGPTLVKPTQTLTLTCTFSGFSLSTSGVGVGWIRQPPGVALEWLALIYWNDDKRFSPSLKSRLTITKDTSKNQVVLTMTNMDPVDTATYYCAHRRLGLYYFDYWGQGTLVTVSS VL: DIQLTQSPSFLSASVGDRVTITCWASQGISSYLAWYQQKPGKAPKLLIYAASTLQSGVPSRFSGSGSGTEFTLTISSLQPEDFATYYCQQVHIYPFTFGPGTKVDIK , readout=t1/2) returns 15.2
